# measured.target: Intercellular adhesion molecule (ICAM-1), Integrin alpha-L/beta-2 (Homo sapiens, UniProt P05107+P05362+P20701)
# Sequence (P20701 whole entry): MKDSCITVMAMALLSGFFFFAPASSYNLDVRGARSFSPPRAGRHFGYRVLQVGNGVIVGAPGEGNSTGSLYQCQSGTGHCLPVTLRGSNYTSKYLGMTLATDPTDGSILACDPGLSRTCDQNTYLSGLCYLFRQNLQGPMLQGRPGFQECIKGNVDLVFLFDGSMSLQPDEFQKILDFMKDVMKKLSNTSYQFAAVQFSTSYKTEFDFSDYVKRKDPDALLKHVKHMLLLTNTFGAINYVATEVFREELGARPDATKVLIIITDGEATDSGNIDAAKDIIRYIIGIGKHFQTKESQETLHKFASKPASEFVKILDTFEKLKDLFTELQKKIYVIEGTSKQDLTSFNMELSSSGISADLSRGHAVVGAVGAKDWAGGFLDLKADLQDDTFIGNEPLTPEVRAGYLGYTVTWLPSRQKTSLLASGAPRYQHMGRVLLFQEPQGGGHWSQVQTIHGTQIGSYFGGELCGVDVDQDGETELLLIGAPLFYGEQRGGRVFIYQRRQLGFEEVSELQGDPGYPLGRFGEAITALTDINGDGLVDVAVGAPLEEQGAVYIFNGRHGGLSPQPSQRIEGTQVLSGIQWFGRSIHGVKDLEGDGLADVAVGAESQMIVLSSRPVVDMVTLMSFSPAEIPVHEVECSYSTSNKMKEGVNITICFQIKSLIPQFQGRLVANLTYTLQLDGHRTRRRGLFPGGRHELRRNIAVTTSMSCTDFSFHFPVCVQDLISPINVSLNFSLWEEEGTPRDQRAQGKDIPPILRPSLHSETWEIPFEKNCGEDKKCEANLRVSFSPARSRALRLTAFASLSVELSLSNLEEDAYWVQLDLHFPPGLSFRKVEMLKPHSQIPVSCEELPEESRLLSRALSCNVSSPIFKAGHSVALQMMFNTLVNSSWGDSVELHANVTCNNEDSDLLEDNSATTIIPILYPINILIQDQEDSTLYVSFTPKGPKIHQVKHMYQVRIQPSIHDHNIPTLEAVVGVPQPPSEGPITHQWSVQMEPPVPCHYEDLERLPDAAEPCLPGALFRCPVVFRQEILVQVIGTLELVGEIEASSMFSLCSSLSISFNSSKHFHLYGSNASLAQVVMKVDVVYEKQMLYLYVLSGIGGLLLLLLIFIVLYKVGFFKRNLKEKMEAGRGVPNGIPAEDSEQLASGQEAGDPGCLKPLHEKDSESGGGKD
# Sequence (P05362 whole entry): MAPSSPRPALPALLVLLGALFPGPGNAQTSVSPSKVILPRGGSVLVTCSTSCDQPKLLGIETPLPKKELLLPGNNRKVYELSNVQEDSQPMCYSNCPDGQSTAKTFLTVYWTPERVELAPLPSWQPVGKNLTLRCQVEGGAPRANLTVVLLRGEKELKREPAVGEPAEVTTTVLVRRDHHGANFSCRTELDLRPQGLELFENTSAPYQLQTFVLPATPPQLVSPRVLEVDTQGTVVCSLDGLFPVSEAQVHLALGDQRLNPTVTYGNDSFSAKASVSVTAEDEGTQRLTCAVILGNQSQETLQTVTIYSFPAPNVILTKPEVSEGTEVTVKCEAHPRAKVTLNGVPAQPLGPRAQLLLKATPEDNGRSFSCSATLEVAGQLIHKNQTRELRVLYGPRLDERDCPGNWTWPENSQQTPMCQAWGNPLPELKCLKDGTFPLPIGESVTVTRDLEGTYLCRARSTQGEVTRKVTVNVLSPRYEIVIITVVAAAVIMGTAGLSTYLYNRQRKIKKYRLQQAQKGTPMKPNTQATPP
# Sequence (P05107 whole entry): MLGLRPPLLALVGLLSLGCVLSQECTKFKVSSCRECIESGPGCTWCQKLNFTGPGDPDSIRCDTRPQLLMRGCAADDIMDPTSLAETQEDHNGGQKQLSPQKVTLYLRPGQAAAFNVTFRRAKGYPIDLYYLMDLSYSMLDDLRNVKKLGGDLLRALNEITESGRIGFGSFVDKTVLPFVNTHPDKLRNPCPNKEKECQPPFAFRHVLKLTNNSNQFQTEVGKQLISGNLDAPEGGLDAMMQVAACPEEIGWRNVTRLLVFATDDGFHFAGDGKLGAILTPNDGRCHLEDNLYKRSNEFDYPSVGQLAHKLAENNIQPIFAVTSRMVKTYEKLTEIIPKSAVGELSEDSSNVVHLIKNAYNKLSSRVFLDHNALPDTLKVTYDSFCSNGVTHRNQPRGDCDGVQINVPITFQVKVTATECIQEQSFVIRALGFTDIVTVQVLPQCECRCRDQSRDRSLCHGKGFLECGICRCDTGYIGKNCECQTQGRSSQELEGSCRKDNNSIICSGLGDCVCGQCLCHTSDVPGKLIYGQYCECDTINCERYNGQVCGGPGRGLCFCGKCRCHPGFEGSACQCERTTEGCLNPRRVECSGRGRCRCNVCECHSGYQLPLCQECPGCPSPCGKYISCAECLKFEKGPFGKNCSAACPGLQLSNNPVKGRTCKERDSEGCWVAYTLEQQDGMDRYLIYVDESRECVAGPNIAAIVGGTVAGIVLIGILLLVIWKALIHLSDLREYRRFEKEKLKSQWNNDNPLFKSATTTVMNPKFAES
# experiment.description: Inhibitory activity against association of LFA-1 with intercellular adhesion molecule 1
observable: IC50 (µM)

For orientation, consider the following solved cases.
>  <smiles.text>
O=C(N[C@@H](Cc1c[nH]c2ccccc12)C(=O)O)c1ccc(I)cc1

>  <observable>
IC50

>  <units.text>
µM

>  <measured.result>
92

$$$$
>  <smiles.text>
Cc1cccc(C)c1C(=O)N[C@@H](Cc1c[nH]c2ccccc12)C(=O)O

>  <observable>
IC50

>  <units.text>
µM

>  <measured.result>
1.1

$$$$
>  <smiles.text>
O=C(N[C@@H](Cc1c[nH]c2ccccc12)C(=O)O)c1ccc(Cl)cc1Cl

>  <observable>
IC50

>  <units.text>
µM

>  <measured.result>
8.4

$$$$

P = O=C(N[C@@H](Cc1c[nH]c2ccccc12)C(=O)O)c1cc(F)cc(F)c1
Q = O=C(N[C@@H](Cc1c[nH]c2ccccc12)C(=O)O)c1cccnc1Cl
Hi, I'm comparing two records. Which one has the lower IC50, P or Q ? Bench note: the answer is the label of the chosen record.
Q
(Q: 1.2 µM, P: 89.7 µM)

Measured values drawn from ChEMBL document CHEMBL1147537 for this set.
